These data points were gathered from patent US20150031674A1.

target: human recombinant PAK1-KD protein (Homo sapiens); test: PAK1-KD (Kinase Domain) IC50 Zlyte Assay (FRET peptide substrate phosphorylation); settings: Z'-LYTE, Biological Example 1
Assay Readout: pKi
Scale note: pKi = -log10(concentration in M).

// below: answered compounds
// compound Cc1cncc(-c2ccc(-c3cc4cnc(N)nc4n(CCCCCN)c3=O)c(Cl)c2)n1 , assay human recombinant PAK1-KD protein (Homo sapiens), pKi value: 6.50

// compound CNc1ncc2cc(-c3ccc(-c4cncc(C)n4)cc3Cl)c(=O)n(CC(=O)N[C@H]3CCNC3)c2n1 , assay human recombinant PAK1-KD protein (Homo sapiens), pKi value: 7.85

// compound CNc1ncc2cc(-c3ccc(-c4cccc(C)n4)cc3Cl)c(=O)n(CCC3CNCCO3)c2n1 (single isomer, unassigned) [Example I-124] , assay human recombinant PAK1-KD protein (Homo sapiens), pKi value: 8.82

// compound CCNc1ncc2cc(-c3ccc(-c4cccc(C)n4)cc3C)c(=O)n(CCC3CNCCO3)c2n1 (single isomer, unassigned) [Example I-112] , assay human recombinant PAK1-KD protein (Homo sapiens), pKi value: 9.00

// compound CCNc1ncc2cc(-c3ccc(-c4cncc(C)n4)cc3Cl)c(=O)n(C3COC4(CCNC4)C3)c2n1 (stereo not shown) , assay human recombinant PAK1-KD protein (Homo sapiens), pKi value: 7.69

// compound Cc1cccc(-c2ccc(-c3cc4cnc(NC5COC5)nc4n(CCS(N)(=O)=O)c3=O)c(C)c2)n1 , assay human recombinant PAK1-KD protein (Homo sapiens), pKi value: 7.77

---
// compound CNc1ncc2cc(-c3ccc(-c4cccc(C)n4)cc3Cl)c(=O)n(CCC3CNCCS3(=O)=O)c2n1 (stereo not shown) , assay human recombinant PAK1-KD protein (Homo sapiens), pKi value: 8.15

// compound CNc1ncc2cc(-c3ccc(-c4cccc(C)n4)cc3C)c(=O)n(CCC3CNCCO3)c2n1 (single isomer, unassigned) [Example I-104] , assay human recombinant PAK1-KD protein (Homo sapiens), pKi value: 8.64

// compound CCNc1ncc2cc(-c3ccc(-c4cncc(C)n4)cc3Cl)c(=O)n(CCC3CCCN3)c2n1 (single isomer, unassigned) [Example I-19] , assay human recombinant PAK1-KD protein (Homo sapiens), pKi value: 7.57

// compound CCNc1ncc2cc(-c3ccc(-c4cccc(C)n4)cc3C)c(=O)n(CCC3CNCCO3)c2n1 (single isomer, unassigned) [Example I-115] , assay human recombinant PAK1-KD protein (Homo sapiens), pKi value: 8.85

// compound CCNc1ncc2cc(-c3ccc(-c4cccc(C)n4)cc3C)c(=O)n(CCCC(N)=O)c2n1 , assay human recombinant PAK1-KD protein (Homo sapiens), pKi value: 7.76

// compound CCNc1ncc2cc(-c3ccc(-c4cccc(C)n4)cc3C)c(=O)n(CC(=O)N3CCNCC3)c2n1 , assay human recombinant PAK1-KD protein (Homo sapiens), pKi value: 7.54

// compound CNc1ncc2cc(-c3ccc(-c4cncc(C)n4)cc3Cl)c(=O)n(CC(=O)N3CCC(O)C3)c2n1 (stereo not shown) , assay human recombinant PAK1-KD protein (Homo sapiens), pKi value: 7.35

// compound CNc1ncc2cc(-c3ccc(-c4cccc(C)n4)cc3C)c(=O)n(CC3C4CN(C)CC43)c2n1 (stereo not shown) , assay human recombinant PAK1-KD protein (Homo sapiens), pKi value: 7.92

// compound Cc1cncc(-c2ccc(-c3cc4cnc(NC(C)C)nc4n(CCC4CNC(=O)C4)c3=O)c(Cl)c2)n1 (single isomer, unassigned) [Example I-99] , assay human recombinant PAK1-KD protein (Homo sapiens), pKi value: 7.72

// compound Cc1cncc(-c2ccc(-c3cc4cnc(NCC(F)F)nc4n(CCOC4CNC4)c3=O)c(Cl)c2)n1 , assay human recombinant PAK1-KD protein (Homo sapiens), pKi value: 7.60

// compound CNc1ncc2cc(-c3ccc(-c4cncc(C)n4)cc3Cl)c(=O)n(CCC3CCNC3=O)c2n1 (single isomer, unassigned) [Example I-103] , assay human recombinant PAK1-KD protein (Homo sapiens), pKi value: 7.72

// compound CCNc1ncc2cc(-c3ccc(-c4cccc(C)n4)cc3Cl)c(=O)n(CCOC3CNC3)c2n1 , assay human recombinant PAK1-KD protein (Homo sapiens), pKi value: 8.00

// compound Cc1cccc(-c2ccc(-c3cc4cnc(NC5COC5)nc4n(CCC4CNCCO4)c3=O)c(C)c2)n1 (single isomer, unassigned) [Example I-113] , assay human recombinant PAK1-KD protein (Homo sapiens), pKi value: 8.77

// compound Cc1cccc(-c2ccc(-c3cc4cnc(NC5COC5)nc4n(C[C@H]4CNCCO4)c3=O)c(Cl)c2)n1 , assay human recombinant PAK1-KD protein (Homo sapiens), pKi value: 7.97

// compound CCNc1ncc2cc(-c3ccc(-c4cncc(C)n4)cc3Cl)c(=O)n(C3COC4(CNC4)C3)c2n1 (stereo not shown) , assay human recombinant PAK1-KD protein (Homo sapiens), pKi value: 7.15

// compound CNc1ncc2cc(-c3ccc(-c4cncc(C)n4)cc3Cl)c(=O)n(CC[C@@H](O)CO)c2n1 , assay human recombinant PAK1-KD protein (Homo sapiens), pKi value: 6.98

// compound CCNc1ncc2cc(-c3ccc(-c4cccc(C)n4)cc3C)c(=O)n(CCCC(=O)NC)c2n1 , assay human recombinant PAK1-KD protein (Homo sapiens), pKi value: 7.81

// compound CCc1cc(-c2cccc(C)n2)ccc1-c1cc2cnc(NC3COC3)nc2n(C[C@H]2CNCCO2)c1=O , assay human recombinant PAK1-KD protein (Homo sapiens), pKi value: 7.68

// compound Cc1cccc(-c2ccc(-c3cc4cnc(NC5COC5)nc4n(CC(=O)N4CCNCC4)c3=O)c(Cl)c2)n1 , assay human recombinant PAK1-KD protein (Homo sapiens), pKi value: 7.80

---

The entries below are paired with their reported pIC50.
system: group I PAKs in EBC1 cells (MEK1 phosphorylation at S298); experiment: Cellular PAK IC50 Assay: MEK1 phosphorylation at S298 by HTRF; format: cell-based; conditions: Homo sapiens, EBC-1, 2 h treatment, media containing 0.1% FBS, phospho-MEK1 (S298) HTRF
Scale note: pIC50 = -log10(concentration in M).

Measured pIC50, Cc1cncc(-c2ccc(-c3cc4cnc(N)nc4n(CC4OCC(N)CO4)c3=O)c(Cl)c2)n1 (centres unmarked) [Example I-56] : 6.37

Measured pIC50, CCNc1ncc2cc(-c3ccc(-c4cncc(C)n4)cc3Cl)c(=O)n(CCOC3CNC3)c2n1 [Example I-11] : 6.72

Measured pIC50, CCNc1ncc2cc(-c3ccc(-c4cncc(C)n4)cc3Cl)c(=O)n(CC(C)OC3CNC3)c2n1 (single isomer, unassigned) [Example I-91] : 6.97

Measured pIC50, CCNc1ncc2cc(-c3ccc(-c4cncc(C)n4)cc3Cl)c(=O)n(CCC3CCCN3)c2n1 (single isomer, unassigned) [Example I-19] : 6.54

Measured pIC50, CCNc1ncc2cc(-c3ccc(-c4cncc(C)n4)cc3Cl)c(=O)n(CCCN)c2n1 [Example I-1] : 6.60

Measured pIC50, CCNc1ncc2cc(-c3ccc(-c4cncc(C)n4)cc3Cl)c(=O)n(C[C@H]3CC[C@H](N)CC3)c2n1 [Example I-5] : 6.83

Measured pIC50, CCNc1ncc2cc(-c3ccc(-c4cncc(C)n4)cc3Cl)c(=O)n(CCOC3CCNC3)c2n1 (single isomer, unassigned) [Example I-52] : 6.81

Measured pIC50, CCNc1ncc2cc(-c3ccc(-c4cncc(C)n4)cc3Cl)c(=O)n(CCN3CCNCC3)c2n1 [Example I-4] : 7.02

Measured pIC50, Cc1cccc(-c2ccc(-c3cc4cnc(N)nc4n(CCC4CNCCO4)c3=O)c(Cl)c2)n1 (racemic) [Example I-127] : 7.42

Measured pIC50, CCNc1ncc2cc(-c3ccc(-c4cncc(C)n4)cc3Cl)c(=O)n(CCCC(N)=O)c2n1 [Example I-3] : 6.30

Measured pIC50, Cc1cncc(-c2ccc(-c3cc4cnc(N)nc4n(C[C@H]4CC[C@H](N)CC4)c3=O)c(Cl)c2)n1 [Example I-9] : 6.45

Measured pIC50, CCNc1ncc2cc(-c3ccc(-c4ncccc4C)cc3Cl)c(=O)n(C[C@H]3CC[C@H](N)CC3)c2n1 [Example I-16] : 7.12

Measured pIC50, CCNc1ncc2cc(-c3ccc(-c4cncc(C)n4)cc3Cl)c(=O)n(CC(=O)N3CCNCC3)c2n1 [Example I-8] : 5.82

Measured pIC50, CCNc1ncc2cc(-c3ccc(-c4cncc(C)n4)cc3Cl)c(=O)n(CCOCCN)c2n1 [Example I-12] : 6.88

---

biological target: human recombinant PAK1-KD protein (Homo sapiens, UniProt Q13153); assay: PAK1-KD (Kinase Domain) IC50 Zlyte Assay (FRET peptide substrate phosphorylation); conditions: Z'-LYTE, Biological Example 1
Sequence (Q13153 270-521 limits assumed): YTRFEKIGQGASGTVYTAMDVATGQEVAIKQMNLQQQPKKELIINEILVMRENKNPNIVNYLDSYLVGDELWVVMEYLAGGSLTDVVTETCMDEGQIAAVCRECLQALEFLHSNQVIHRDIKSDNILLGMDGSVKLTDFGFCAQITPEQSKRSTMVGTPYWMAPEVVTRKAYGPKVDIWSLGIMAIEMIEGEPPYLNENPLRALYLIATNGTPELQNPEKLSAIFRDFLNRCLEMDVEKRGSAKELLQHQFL
The entries below are paired with their reported pKi.
Scale note: pKi = -log10(concentration in M).

Measured pKi, CCNc1ncc2cc(-c3ccc(-c4cncc(C)n4)cc3Cl)c(=O)n(CCC3CNCCO3)c2n1 (single isomer, unassigned) [Example I-22] : 8.05

Measured pKi, CCNc1ncc2cc(-c3ccc(-c4cc(C)cnn4)cc3Cl)c(=O)n(C[C@H]3CC[C@H](N)CC3)c2n1 : 7.51

---
Measured pKi, CNc1ncc2cc(-c3ccc(-c4cccc(C)n4)cc3Cl)c(=O)n(CC(=O)N3CCNCC3)c2n1 : 7.84

Measured pKi, CCc1cc(-c2cccc(C)n2)ccc1-c1cc2cnc(NC3COC3)nc2n(C[C@@H]2CNCCO2)c1=O : 7.58
